Cited source for all entries: patent US20180222987A1

I'd appreciate it if you could supply pKd values for the items below.
target: Macaca fascicularis CD3ε/δ-Fc fusion heterodimer (Macaca fascicularis) (UniProt Q95LI8); test: SPR Biacore, Fab; unit inferred
Sequence (chain, as listed by the source mutant, chain 1 of 2): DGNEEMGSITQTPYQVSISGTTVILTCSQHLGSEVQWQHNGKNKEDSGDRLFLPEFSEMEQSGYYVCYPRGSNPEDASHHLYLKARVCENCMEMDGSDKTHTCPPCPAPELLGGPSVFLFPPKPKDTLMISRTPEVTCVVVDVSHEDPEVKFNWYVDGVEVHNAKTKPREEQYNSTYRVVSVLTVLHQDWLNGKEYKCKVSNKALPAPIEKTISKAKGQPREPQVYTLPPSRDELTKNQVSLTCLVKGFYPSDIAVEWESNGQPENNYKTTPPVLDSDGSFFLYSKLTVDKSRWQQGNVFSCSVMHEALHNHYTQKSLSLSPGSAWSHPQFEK
Sequence (Q95LI8 22-105, stated change not applied, chain 2 of 2): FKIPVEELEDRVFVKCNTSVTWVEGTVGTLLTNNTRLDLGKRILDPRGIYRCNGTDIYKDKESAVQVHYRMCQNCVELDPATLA
Numbers only, as −log10 of the molar value.

binder: humanized 4B4 Fab 4B4_9 (VL2B / VH2A) (Fab, V domains shown) VH: EVQLVETGGGLVQPGGSLKLTCATSGFTFSNAWMHWVRQSPEKGLEWVAQIKARSNNYATYYAESVKGRFTISRDDSKSTIYLQMNSLRAEDTAIYYCRGTYYASKPFDYWGQGVMVTVSS VL: DVVMTQTPVSLSVSPGGPVSISCRSSQSLVHDNANTYLSWSLQKPGQSPQVLIYKVSNRFSGVSDRFTGSGSGTDFTLKISRVEPDDLGVYYCGQGTQYPFTFGSGTKLEIK
pKd: 7.92

binder: humanized 4B4 Fab 4B4_17 (VL2A / VH2B) (Fab, V domains shown) VH: EVQLVETGGGLVQPGGSLKLTCATSGFTFSNAWMHWVRQSPEKGLEWVAQIKARSNNYATYYADSVKGRFTISRDDSKSTIYLQMNSLRAEDTAIYYCRGTYYASKPFDYWGQGVMVTVSS VL: DVVMTQTPVSLSVSPGGPVSISCRSSQSLVHDNGNTYLSWSLQKPGQSPQVLIYKVSNRFSGVSDRFTGSGSGTDFTLKISRVEPDDLGVYYCGQGTQYPFTFGSGTKLEIK
pKd: 8.04

binder: humanized 4B4 Fab 4B4_1 (VL1a / VH1B) (Fab, V domains shown) VH: QVQLVETGGGLVKPGQSLKLTCATSGFTFSNAWMHWVRQSPEKGLEWVAQIKARSNNYATYYAVSVKGRFTISRDDSKSTIYLQMNSLTPEDTAIYYCRGTYYASKPFDYWGQGVMVTVSS VL: DVVMTQTPVSLSVSVGGRVSISCRSSQSLVHDNGNTYLSWSLQKPGKSPKVLIYKVSNRFSGVSSRFTGSGSGTDFTLKISSVQPDDLGVYYCGQGTQYPFTFGSGTKLEIK
pKd: 8.50

binder: humanized 4B4 Fab 4B4_11 (VL1_CM3 / VH6_BM2) (Fab, V domains shown) VH: QVQLVESGGRVVQPGRSLRLTCAASGFTFSNAWMHWVRQAPGKQLEWVAQIKARSNNYATYYAESVKGRFTISRDDSKSTIYLQMNSLRAEDTAVYYCRGTYYASKPFDYWGQGTTVTVSS VL: DVVMTQSPLSLSVTLGQPVSISCRSSQSLVHDNANTYLSWSLQRPGQSPRVLIYKVSNRFSGVPDRFSGSGSGTDFTLKISRVEAEDVGVYYCGQGTQYPFTFGSGTKLEIK
pKd: 7.69

Please supply pKd for each of the following items, keeping them in order.
1. humanized 4B4 Fab 4B4_10 (VL1_CM2 / VH6_BM2) (Fab, V domains shown) VH: QVQLVESGGRVVQPGRSLRLTCAASGFTFSNAWMHWVRQAPGKQLEWVAQIKARSNNYATYYAESVKGRFTISRDDSKSTIYLQMNSLRAEDTAVYYCRGTYYASKPFDYWGQGTTVTVSS VL: DVVMTQSPLSLSVTLGQPVSISCRSSQSLVHDNGNTYLSWSLQRPGQSPRVLIYKVSNRFSGVPDRFSGSGSGTDFTLKISRVEAEDVGVYYCGQGTQYPFTFGSGTKLEIK
2. humanized 4B4 Fab 4B4_20 (VL2F / VH6C) (Fab, V domains shown) VH: QVQLVESGGGVVQPGRSLRLSCAASGFTFSNAWMHWVRQAPGKQLEWVAQIKARSNNYATYYADSVKGRFTISRDDSKSTLYLQMNSLRAEDTAVYYCRGTYYASKPFDYWGQGTLVTVSS VL: DIVMTQTPLSLSVTPGQPASISCKSSQSLVHDNANTYLSWYLQKPGQSPQSLIYKVSNRFSGVPDRFSGSGSGTDFTLKISRVEAEDVGVYYCGQGTQYPFTFGSGTKVEIK
3. humanized 4B4 Fab 4B4_6 (VL1a / VH1A) (Fab, V domains shown) VH: QVQLVETGGGLVKPGQSLKLTCATSGFTFSNAWMHWVRQSPEKGLEWVAQIKARSNNYATYYAESVKGRFTISRDDSKSTIYLQMNSLTPEDTAIYYCRGTYYASKPFDYWGQGVMVTVSS VL: DVVMTQTPVSLSVSVGGRVSISCRSSQSLVHDNGNTYLSWSLQKPGKSPKVLIYKVSNRFSGVSSRFTGSGSGTDFTLKISSVQPDDLGVYYCGQGTQYPFTFGSGTKLEIK
4. humanized 4B4 Fab 4B4_5 (VL2C / VH6D) (Fab, V domains shown) VH: QVQLVESGGGVVQPGRSLRLSCATSGFTFSNAWMHWVRQAPGKQLEWVAQIKARSNNYATYYADSVKGRFTISRDDSKSTIYLQMNSLRAEDTAVYYCRGTYYASKPFDYWGQGTLVTVSS VL: DIVMTQTPLSLSVTPGQPASISCKSSQSLVHDNGNTYLSWSLQKPGQSPQVLIYKVSNRFSGVPDRFSGSGSGTDFTLKISRVEAEDVGVYYCGQGTQYPFTFGSGTKLEIK
5. humanized 4B4 Fab 4B4_7 (VL1b / VH1A) (Fab, V domains shown) VH: QVQLVETGGGLVKPGQSLKLTCATSGFTFSNAWMHWVRQSPEKGLEWVAQIKARSNNYATYYAESVKGRFTISRDDSKSTIYLQMNSLTPEDTAIYYCRGTYYASKPFDYWGQGVMVTVSS VL: DVVMTQTPVSLSVSVGGRVSISCRSSQSLVHDNANTYLSWSLQKPGKSPKVLIYKVSNRFSGVSSRFTGSGSGTDFTLKISSVQPDDLGVYYCGQGTQYPFTFGSGTKLEIK
6. humanized 4B4 Fab 4B4_2 (VL1b / VH1B) (Fab, V domains shown) VH: QVQLVETGGGLVKPGQSLKLTCATSGFTFSNAWMHWVRQSPEKGLEWVAQIKARSNNYATYYAVSVKGRFTISRDDSKSTIYLQMNSLTPEDTAIYYCRGTYYASKPFDYWGQGVMVTVSS VL: DVVMTQTPVSLSVSVGGRVSISCRSSQSLVHDNANTYLSWSLQKPGKSPKVLIYKVSNRFSGVSSRFTGSGSGTDFTLKISSVQPDDLGVYYCGQGTQYPFTFGSGTKLEIK

[A]
8.05
7.36
8.92
7.78
8.14
8.12
